Target: MCL-1 (Homo sapiens (Human))
Sequence (Q07820 whole entry): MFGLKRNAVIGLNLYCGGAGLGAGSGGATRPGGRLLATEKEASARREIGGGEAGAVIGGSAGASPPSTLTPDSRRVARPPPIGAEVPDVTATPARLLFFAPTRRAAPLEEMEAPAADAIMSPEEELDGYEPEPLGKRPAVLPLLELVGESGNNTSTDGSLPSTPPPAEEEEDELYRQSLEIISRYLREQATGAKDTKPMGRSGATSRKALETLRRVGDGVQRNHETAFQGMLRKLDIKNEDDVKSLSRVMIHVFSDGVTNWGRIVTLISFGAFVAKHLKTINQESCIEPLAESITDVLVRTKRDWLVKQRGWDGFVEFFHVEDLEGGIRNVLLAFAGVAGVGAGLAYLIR
Test: Cell free Mcl-1:Bim affinity assay (fluorescence polarization competition)
Type: binding
Conditions: 15 nM MCL-1, 5 nM FITC-Bim, 1 hour at room temperature; class symbols; read-out: BIM_Ki
pKi: −log10 of the molar value.
Reported endpoint: pKi

Example compounds with recorded pKi:
- Compound: "CN1C/C=C/[C@H](OC(=O)NC2CCC2)[C@@H]2CC[C@H]2CN2C[C@@]3(CCCc4cc(Cl)ccc43)COc3ccc(cc32)S(=O)(=O)NC(=O)C1(C)C [Example 201]"
  Reported endpoint: "pKi"
  Endpoint value: "> 9.00"
- Compound: "CC1/C=C/[C@H](OC(=O)N(C)C)[C@@H]2CC[C@H]2CN2C[C@@]3(CCCc4cc(Cl)ccc43)COc3ccc(cc32)S(=O)(=O)NC(=O)C(C)(C)O1 (stereo partly drawn) [Example 292]"
  Reported endpoint: "pKi"
  Endpoint value: "> 9.00"
- Compound: "CC1(C)OC/C=C/[C@H](OC(=O)N2CC(O)C2)[C@@H]2CC[C@H]2CN2C[C@@]3(CCCc4cc(Cl)ccc43)COc3ccc(cc32)S(=O)(=O)NC1=O [Example 153]"
  Reported endpoint: "pKi"
  Endpoint value: "> 9.00"
- Compound: "CO[C@@H]1CCN(CCO[C@H]2/C=C/COC(C)(C)C(=O)NS(=O)(=O)c3ccc4c(c3)N(C[C@@H]3CC[C@H]32)C[C@@]2(CCCc3cc(Cl)ccc32)CO4)C1 [Example 260]"
  Reported endpoint: "pKi"
  Endpoint value: "> 9.00"
- Compound: "CN1CCOC(C)(C)C(=O)NS(=O)(=O)c2ccc3c(c2)N(C[C@@H]2CC[C@H]2C1=O)C[C@@]1(CCCc2cc(Cl)ccc21)CO3 [Example 110]"
  Reported endpoint: "pKi"
  Endpoint value: "7.00 to 9.00"
- Compound: "CC1(C)OC/C=C/[C@H](OC(=O)N2CCOCC2)[C@@H]2CC[C@H]2CN2C[C@@]3(CCCc4cc(Cl)ccc43)COc3ccc(cc32)S(=O)(=O)NC1=O [Example 172]"
  Reported endpoint: "pKi"
  Endpoint value: "> 9.00"
- Compound: "CC1(C)OC/C=C/[C@@H](OCCN2CC(F)(F)C2)[C@@H]2CC[C@H]2CN2C[C@@]3(CCCc4cc(Cl)ccc43)COc3ccc(cc32)S(=O)(=O)NC1=O [Example 272]"
  Reported endpoint: "pKi"
  Endpoint value: "> 9.00"
- Compound: "CC1(C)OC/C=C/[C@H](OCC(=O)N[C@H]2CCOC2)[C@@H]2CC[C@H]2CN2C[C@@]3(CCCc4cc(Cl)ccc43)COc3ccc(cc32)S(=O)(=O)NC1=O [Example 285]"
  Reported endpoint: "pKi"
  Endpoint value: "> 9.00"

Prompt: Item CN(C)CCN(C)C(=O)O[C@H]1/C=C/CN(C)C(C)(C)C(=O)NS(=O)(=O)c2ccc3c(c2)N(C[C@@H]2CC[C@H]21)C[C@@]1(CCCc2cc(Cl)ccc21)CO3 [Example 213] has what recorded pKi?
Response: > 9.00

Prompt: For CCCN1C/C=C/[C@H](OC(=O)N(C)C)[C@@H]2CC[C@H]2CN2C[C@@]3(CCCc4cc(Cl)ccc43)COc3ccc(cc32)S(=O)(=O)NC(=O)C1(C)C [Example 211] , what is its reported pKi?
Response: > 9.00

Prompt: Could you tell me which pKi is on file for CN(C)C(=O)O[C@H]1/C=C/COC(C)(C)C(=O)NS(=O)(=O)c2ccc3c(c2)N(C[C@@H]2CC[C@H]21)C[C@@]1(CCOc2cc(Cl)ccc21)CO3 [Example 247] ?
Response: > 9.00

Prompt: Given CC1(C)OC/C=C/[C@H](O)[C@@H]2CC[C@H]2CN2C[C@@]3(CCOc4cc(Cl)ccc43)COc3ccc(cc32)S(=O)(=O)NC1=O [Example 246] , state its recorded pKi.
Response: 7.00 to 9.00

Prompt: What value of pKi has been recorded for this entry: CO[C@@H]1/C=C/CN[C@@H](C)C(=O)NS(=O)(=O)c2ccc3c(c2)N(C[C@@H]2CC[C@H]21)C[C@@]1(CCCc2cc(Cl)ccc21)CO3 [Example 117]
Response: 7.00 to 9.00

Prompt: Requested read-out: pKi. Entry: CN(C)C1CN(C(=O)O[C@H]2/C=C/COC(C)(C)C(=O)NS(=O)(=O)c3ccc4c(c3)N(C[C@@H]3CC[C@H]32)C[C@@]2(CCCc3cc(Cl)ccc32)CO4)C1 [Example 52]
Response: > 9.00

Prompt: Field request: pKi | item: COC[C@H]1CCCN1C(=O)O[C@H]1/C=C/COC(C)(C)C(=O)NS(=O)(=O)c2ccc3c(c2)N(C[C@@H]2CC[C@H]21)C[C@@]1(CCCc2cc(Cl)ccc21)CO3 [Example 161]
Response: > 9.00
